Run description: Cmax in Harlan nu/nu mouse at 10 mg/kg, iv administered as single dose by LC-MS/MS analysis
Assay type: ADME, organism-based
Parameters: dose 10 mg/kg, route intravenous
Condition info: in vivo
Assay metric: Cmax (µM)
One number for each entry, in µM.

Please review the following examples before continuing.
[[record]]
compound = "CN1CCN(c2ccc(C(=O)Nc3n[nH]c4ccc(Cc5cc(F)cc(F)c5)cc34)c(N[C@H]3CC[C@H](O)CC3)c2)CC1"
value_units = "µM"
reported_value = 7.06

[[record]]
compound = "CN(C)CCN(C)C(=O)c1ccc(C(=O)Nc2n[nH]c3ccc(Cc4cc(F)cc(F)c4)cc23)c(NC2CCOCC2)c1"
value_units = "µM"
reported_value = 10.3

[[record]]
compound = "O=C(Nc1n[nH]c2ccc(Cc3cc(F)cc(F)c3)cc12)c1ccc(N2CCNCC2)cc1NC1CCOCC1"
value_units = "µM"
reported_value = 40.5

[[record]]
compound = "O=C(Nc1n[nH]c2ccc(Cc3cc(F)cc(F)c3)cc12)c1ccc(CN2CCCCC2)cc1NC1CCOCC1"
value_units = "µM"
reported_value = 5.69

[[record]]
compound = "CN1CCN(c2ccc(C(=O)Nc3n[nH]c4ccc(Cc5cc(F)cc(F)c5)cc34)c(NCCF)c2)CC1"
value_units = "µM"
reported_value = 7.58

[[record]]
compound = "CN1CCN(c2ccc(C(=O)Nc3n[nH]c4ccc(Cc5cc(F)cc(F)c5)cc34)c(NC3CCOCC3)c2)CC1 [ENTRECTINIB]"
value_units = "µM"
reported_value = 4.9


Proceed to the following item.
query: I am curious: what Cmax value has been reported for `CN1CCC(Oc2ccc(C(=O)Nc3n[nH]c4ccc(Cc5cc(F)cc(F)c5)cc34)c(NC3CCOCC3)c2)CC1` ?
result: 6.93

All values here come from ChEMBL document CHEMBL3804811.
